System under test: T1, human 4-1BB (tumor necrosis factor receptor superfamily member 9) (human, UniProt Q07011 24-255)
T1 construct: whole, on cells; also called hu 4-1BB; CD137
T1 sequence (Q07011 24-255): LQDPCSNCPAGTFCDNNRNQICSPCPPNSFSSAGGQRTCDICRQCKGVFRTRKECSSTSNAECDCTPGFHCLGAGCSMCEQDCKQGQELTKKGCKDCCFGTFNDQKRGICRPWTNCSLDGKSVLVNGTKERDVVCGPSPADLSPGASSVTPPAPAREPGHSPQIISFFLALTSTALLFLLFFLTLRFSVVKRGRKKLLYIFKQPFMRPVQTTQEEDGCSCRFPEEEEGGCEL
Protocol description: flow cytometry (FACS) on CHO-K1/hu 4-1BB cells
Property measured: Maximum MFI (MFI)

- Anti-4-1BB heavy-chain antibody 1016P0042C5, hIgG1 (antibody, V domains shown, HCAb (heavy chain dimer, no light chain), hIgG1 Fc; also called PR001771) VH: EVQLLESGGGLVQPGGSLRLSCAASGFTFSNYAMTWVRQPPGKGLEWVSSISGSGGSTYYADSVKGRFTISRDNSKNTLYLQMNSLRAEDTAVYYCAKEGTGTTSDYYYNVDVWGQGTTVTVSS: 1720
- Anti-4-1BB heavy-chain antibody 1016P0010B11, hIgG1 (antibody, V domains shown, HCAb (heavy chain dimer, no light chain), hIgG1 Fc; also called PR001758) VH: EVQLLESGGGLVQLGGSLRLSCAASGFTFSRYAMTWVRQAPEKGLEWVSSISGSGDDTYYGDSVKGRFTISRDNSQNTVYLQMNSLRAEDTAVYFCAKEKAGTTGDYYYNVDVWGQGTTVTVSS: 1640
- Anti-4-1BB heavy-chain antibody PR001838_G53A, hIgG1 (antibody, V domains shown, HCAb (heavy chain dimer, no light chain), hIgG1 Fc; also called PR004469) VH: EVQLLESGGGLVQPGGSLRLSCAASGFTFSNYAMSWFRQPPETGLKWVSSIDASGGDTYYADSVKGRFTISRDNSKNTLYLQMNSLRAEDTAVYYCAKEGSHGTDDSHYDVDVWGQGTTVTVSS: 109000
